# Test system: Saccharomyces cerevisiae
# Test protocol: Antifungal activity against Saccharomyces cerevisiae after 18 to 20 hrs by microbroth dilution method
# Assay type: functional
Where a SMILES comes first, the peptide text is derived from it. [ ]: non-standard residue; d: D form. Orn = NCCC[C@H](N)C(=O)O
I'd appreciate it if you could supply MIC values for the items below.
Record the value in µM, omitting the unit from your answer.

Query block: Would you kindly share the measured MIC for CC[C@H](C)[C@H](NC(=O)[C@H](CCCN)NC(=O)CNC(=O)[C@H](CC(C)C)NC(=O)[C@H](Cc1ccccc1)NC(=O)[C@H](CCCCN)NC(=O)[C@H](CO)NC(=O)[C@H](Cc1ccccc1)NC(=O)[C@H](Cc1c[nH]c2ccccc12)NC(=O)[C@@H]1CCCN1C(=O)[C@@H](NC(=O)[C@@H](N)Cc1ccccc1)C(C)C)C(=O)N[C@@H](CC(C)C)C(N)=O (H-FVPWFSKFLG[Orn]IL-NH2) ?
Result block: 6

Query block: Here is the next molecule: `CC[C@H](C)[C@H](NC(=O)[C@H](CCCNC(=N)N)NC(=O)[C@H]1CCCN1C(=O)[C@H](CC(C)C)NC(=O)[C@H](Cc1ccccc1)NC(=O)[C@H](CCCCN)NC(=O)[C@H](CO)NC(=O)[C@H](Cc1ccccc1)NC(=O)[C@H](Cc1c[nH]c2ccccc12)NC(=O)[C@@H]1CCCN1C(=O)[C@@H](NC(=O)[C@@H](N)Cc1ccccc1)C(C)C)C(=O)N[C@@H](CC(C)C)C(N)=O`
Result block: 12

Query block: Here is the next molecule: CC[C@H](C)[C@H](NC(=O)[C@H](CCCNC(=N)N)NC(=O)CNC(=O)[C@H](CC(C)C)NC(=O)[C@H](Cc1ccccc1)NC(=O)[C@H](CCCCN)NC(=O)[C@H](CO)NC(=O)[C@H](Cc1ccccc1)NC(=O)[C@H](Cc1c[nH]c2ccccc12)NC(=O)[C@@H]1CCCN1C(=O)[C@H](CC(C)C)NC(=O)[C@@H](N)Cc1ccccc1)C(=O)N[C@@H](CC(C)C)C(N)=O (H-FLPWFSKFLGRIL-NH2)
Result block: 12

----------
I'd appreciate it if you could supply hemolysis at 40 min, 1.5 µM values for the items below.
# Test protocol: Toxicity in human erythrocytes assessed as hemolysis at 1.5 uM after 40 mins
# Type: cell-based, Erythrocyte
# Assay conditions: read-out: Activity
Where a SMILES comes first, the peptide text is derived from it.
Record the value in %, omitting the unit from your answer.

Query block: Would you kindly share the measured hemolysis at 40 min, 1.5 µM for `CC[C@H](C)[C@H](NC(=O)[C@H](CCCNC(=N)N)NC(=O)CNC(=O)[C@H](CC(C)C)NC(=O)[C@H](Cc1ccccc1)NC(=O)[C@H](CCCCN)NC(=O)[C@H](CO)NC(=O)[C@H](Cc1ccccc1)NC(=O)[C@H](Cc1c[nH]c2ccccc12)NC(=O)[C@H](CCC(N)=O)NC(=O)[C@@H](NC(=O)[C@@H](N)Cc1ccccc1)C(C)C)C(=O)N[C@@H](CC(C)C)C(N)=O` ?
Result block: 3

Query block: Here is the next molecule: CC[C@H](C)[C@H](NC(=O)[C@H](CCCNC(=N)N)NC(=O)[C@H](CC(C)C)NC(=O)[C@H](CC(C)C)NC(=O)[C@H](Cc1ccccc1)NC(=O)[C@H](CCCCN)NC(=O)[C@H](CO)NC(=O)[C@H](Cc1ccccc1)NC(=O)[C@H](Cc1c[nH]c2ccccc12)NC(=O)[C@H](CCC(N)=O)NC(=O)[C@@H](NC(=O)[C@@H](N)Cc1ccccc1)C(C)C)C(=O)N[C@@H](CC(C)C)C(N)=O (H-FVQWFSKFLLRIL-NH2)
Result block: 69

----------
# Test protocol: Toxicity in human erythrocytes assessed as hemolysis at 6 uM after 40 mins
# Format: cell-based, Erythrocyte
# Assay conditions: read-out: Activity
Where a SMILES comes first, the peptide text is derived from it.
Kindly apply the following: 1.0 if hemolysis at 40 min, 6 µM is less than 20%, 0.0 in every other case.

Query block: Just wondering, is hemolysis at 40 min, 6 µM of CC[C@H](C)[C@H](NC(=O)[C@H](CCCNC(=N)N)NC(=O)CNC(=O)[C@H](CC(C)C)NC(=O)[C@H](Cc1ccccc1)NC(=O)[C@H](CCCCN)NC(=O)[C@H](CO)NC(=O)[C@H](Cc1ccccc1)NC(=O)[C@H](Cc1c[nH]c2ccccc12)NC(=O)[C@H](CCC(N)=O)NC(=O)[C@@H](NC(=O)[C@@H](N)Cc1ccccc1)C(C)C)C(=O)N[C@@H](CC(C)C)C(N)=O [TEMPORIN L] below 20%?
Result block: 0.0

Query block: Here is the next compound: `CC[C@H](C)[C@H](NC(=O)[C@H](CCCNC(=N)N)NC(=O)[C@H]1CCCN1C(=O)[C@H](CC(C)C)NC(=O)[C@H](Cc1ccccc1)NC(=O)[C@H](CCCCN)NC(=O)[C@H](CO)NC(=O)[C@H](Cc1ccccc1)NC(=O)[C@H](Cc1c[nH]c2ccccc12)NC(=O)[C@@H]1CCCN1C(=O)[C@@H](NC(=O)[C@@H](N)Cc1ccccc1)C(C)C)C(=O)N[C@@H](CC(C)C)C(N)=O`
Result block: 1.0

Query block: Here is the next compound: CC[C@H](C)[C@H](NC(=O)[C@H](CCCCN)NC(=O)CNC(=O)[C@H](CC(C)C)NC(=O)[C@H](Cc1ccccc1)NC(=O)[C@H](CCCCN)NC(=O)[C@H](CO)NC(=O)[C@H](Cc1ccccc1)NC(=O)[C@H](Cc1c[nH]c2ccccc12)NC(=O)[C@H](CCC(N)=O)NC(=O)[C@@H](NC(=O)[C@@H](N)Cc1ccccc1)C(C)C)C(=O)N[C@@H](CC(C)C)C(N)=O (H-FVQWFSKFLGKIL-NH2)
Result block: 1.0

Query block: Here is the next compound: CC[C@H](C)[C@H](NC(=O)[C@H](CCCNC(=N)N)NC(=O)[C@H](CC(C)C)NC(=O)[C@H](CC(C)C)NC(=O)[C@H](Cc1ccccc1)NC(=O)[C@H](CCCCN)NC(=O)[C@H](CO)NC(=O)[C@H](Cc1ccccc1)NC(=O)[C@H](Cc1c[nH]c2ccccc12)NC(=O)[C@H](CCC(N)=O)NC(=O)[C@@H](NC(=O)[C@@H](N)Cc1ccccc1)C(C)C)C(=O)N[C@@H](CC(C)C)C(N)=O (H-FVQWFSKFLLRIL-NH2)
Result block: 0.0

Query block: Here is the next compound: CC[C@H](C)[C@H](NC(=O)[C@H](CCCNC(=N)N)NC(=O)CNC(=O)[C@H](CC(C)C)NC(=O)[C@H](Cc1ccccc1)NC(=O)[C@H](CCCCN)NC(=O)[C@H](CO)NC(=O)[C@H](Cc1ccccc1)NC(=O)[C@H](Cc1c[nH]c2ccccc12)NC(=O)[C@@H]1CCCN1C(=O)[C@H](CC(C)C)NC(=O)[C@@H](N)Cc1ccccc1)C(=O)N[C@@H](CC(C)C)C(N)=O (H-FLPWFSKFLGRIL-NH2)
Result block: 1.0

Query block: Here is the next compound: `CC[C@@H](C)[C@@H](NC(=O)[C@H](N)CC(C)C)C(=O)N[C@H](CCCNC(=N)N)C(=O)NCC(=O)N[C@H](CC(C)C)C(=O)N[C@H](Cc1ccccc1)C(=O)N[C@H](CCCCN)C(=O)N[C@H](CO)C(=O)N[C@H](Cc1ccccc1)C(=O)N[C@H](Cc1c[nH]c2ccccc12)C(=O)N[C@H](CCC(N)=O)C(=O)N[C@@H](C(=O)N[C@H](Cc1ccccc1)C(N)=O)C(C)C`
Result block: 1.0

----------
I'd appreciate it if you could supply MIC values for the items below.
# Tested on: Streptococcus pyogenes
# Test protocol: Antibacterial activity against Streptococcus pyogenes ATCC 21547 after 18 to 20 hrs by microbroth dilution method
# Format: functional
Where a SMILES comes first, the peptide text is derived from it. [ ]: non-standard residue; d: D form. Orn = NCCC[C@H](N)C(=O)O

Query block: Short answer please: MIC, Streptococcus pyogenes, entry CC[C@H](C)[C@H](NC(=O)[C@H](CCCNC(=N)N)NC(=O)CNC(=O)[C@H](CC(C)C)NC(=O)[C@H](Cc1ccccc1)NC(=O)[C@H](CCCCN)NC(=O)[C@H](CO)NC(=O)[C@H](Cc1ccccc1)NC(=O)[C@H](Cc1c[nH]c2ccccc12)NC(=O)[C@@H]1CCCN1C(=O)[C@H](CC(C)C)NC(=O)[C@@H](N)Cc1ccccc1)C(=O)N[C@@H](CC(C)C)C(N)=O (H-FLPWFSKFLGRIL-NH2)
Result block: 6 µM

Query block: Here is the next molecule: CC[C@H](C)[C@H](NC(=O)[C@H](CCCN)NC(=O)CNC(=O)[C@H](CC(C)C)NC(=O)[C@H](Cc1ccccc1)NC(=O)[C@H](CCCCN)NC(=O)[C@H](CO)NC(=O)[C@H](Cc1ccccc1)NC(=O)[C@H](Cc1c[nH]c2ccccc12)NC(=O)[C@H](CCC(N)=O)NC(=O)[C@@H](NC(=O)[C@@H](N)Cc1ccccc1)C(C)C)C(=O)N[C@@H](CC(C)C)C(N)=O (H-FVQWFSKFLG[Orn]IL-NH2)
Result block: 24 µM

Query block: Here is the next molecule: CC[C@H](C)[C@H](NC(=O)[C@H](CCCNC(=N)N)NC(=O)[C@H](CC(C)C)NC(=O)[C@H](CC(C)C)NC(=O)[C@H](Cc1ccccc1)NC(=O)[C@H](CCCCN)NC(=O)[C@H](CO)NC(=O)[C@H](Cc1ccccc1)NC(=O)[C@H](Cc1c[nH]c2ccccc12)NC(=O)[C@H](CCC(N)=O)NC(=O)[C@@H](NC(=O)[C@@H](N)Cc1ccccc1)C(C)C)C(=O)N[C@@H](CC(C)C)C(N)=O (H-FVQWFSKFLLRIL-NH2)
Result block: 6 µM

Query block: Here is the next molecule: `CC[C@@H](C)[C@@H](NC(=O)[C@@H](CCCNC(=N)N)NC(=O)CNC(=O)[C@@H](CC(C)C)NC(=O)[C@@H](Cc1ccccc1)NC(=O)[C@@H](CCCCN)NC(=O)[C@@H](CO)NC(=O)[C@@H](Cc1ccccc1)NC(=O)[C@@H](Cc1c[nH]c2ccccc12)NC(=O)[C@@H](CCC(N)=O)NC(=O)[C@H](NC(=O)[C@H](N)Cc1ccccc1)C(C)C)C(=O)N[C@H](CC(C)C)C(N)=O`
Result block: 6 µM
